Test system: Ehrlich ascites carcinoma
Test: Preventive effect against the growth of Ehrlich ascites tumor (Method A)
Assay type: in vivo, mice (female ICR)
Settings: Mus musculus, Ehrlich, ip, 168 h; 6.25 mg/kg/day i.p., once a day for 5 days; read-out: Inhibition ratio
PROPERTY_LABEL: inhibition in vivo at 6.25 mg/kg (%)
Give just the numeric value; % need not be written.

Can you share its inhibition in vivo at 6.25 mg/kg? I mean this compound: COCCCN(C(=O)N(CCCl)N=O)C1OC[C@@H](O)[C@@H](O)[C@@H]1O (some centres unmarked)
100

Can you share its inhibition in vivo at 6.25 mg/kg? I mean this compound: COCC(C)N(C(=O)N(CCCl)N=O)C1O[C@H](CO)[C@H](O)[C@H](O)[C@H]1O (some centres unmarked)
100

Can you share its inhibition in vivo at 6.25 mg/kg? I mean this compound: COCCN(C(=O)N(CCCl)N=O)C1O[C@H](CO)[C@@H](O)[C@H](O)[C@@H]1O (some centres unmarked)
100

Can you share its inhibition in vivo at 6.25 mg/kg? I mean this compound: O=NN(CCCl)C(=O)NC1CCCCC1 [CCNU, reference compound]
33.3

Can you share its inhibition in vivo at 6.25 mg/kg? I mean this compound: COCCCN(C(=O)N(CCCl)N=O)C1O[C@H](CO)[C@@H](O)[C@H](O)[C@H]1O (some centres unmarked)
100

* * *

Answer each item with its documented Toxic (number of mice died/number of mice used).
System: Ehrlich ascites carcinoma
Experiment: Preventive effect against the growth of Ehrlich ascites tumor (Method A)
Type: in vivo, mice (female ICR)
Conditions: 100 mg/kg/day i.p., once a day for 5 days

Can you share its Toxic (number of mice died/number of mice used)? I mean this compound: COCCN(C(=O)N(CCCl)N=O)C1O[C@H](CO)[C@@H](O)[C@H]1O (stereo partly drawn) [Compound 9]
3/5

Can you share its Toxic (number of mice died/number of mice used)? I mean this compound: O=NN(CCCl)C(=O)NC1CCCCC1 [CCNU, reference compound]
5/5

Can you share its Toxic (number of mice died/number of mice used)? I mean this compound: COCCN(C(=O)N(CCCl)N=O)C1OC[C@H](O)[C@H](O)[C@H]1O (stereo partly drawn) [Compound 3]
3/5

Can you share its Toxic (number of mice died/number of mice used)? I mean this compound: COCC(C)N(C(=O)N(CCCl)N=O)C1OC[C@H](O)[C@H](O)[C@H]1O (stereo partly drawn) [Compound 6]
5/5

Can you share its Toxic (number of mice died/number of mice used)? I mean this compound: COCCCN(C(=O)N(CCCl)N=O)C1OC[C@H](O)[C@H](O)[C@H]1O (stereo partly drawn) [Compound 4]
2/5

Can you share its Toxic (number of mice died/number of mice used)? I mean this compound: COC(C)CN(C(=O)N(CCCl)N=O)C1OC[C@H](O)[C@H](O)[C@H]1O (stereo partly drawn) [Compound 5]
4/5

* * *

System: Leukemia L-1210
Test: Effect on the life span of mice implanted with leukemic cells of L-1210 (Method B)
Assay type: in vivo, mice (male BDF1)
Conditions: Mus musculus, L1210, ip, 1440 h; 12.5 mg/kg/day i.p., once a day for 5 days; read-out: 60-day survivors (mice survived for 60 days/mice used) (converted)
PROPERTY_LABEL: responders at 12.5 mg/kg (%)
Give just the numeric value; % need not be written.

Look up responders at 12.5 mg/kg with Leukemia L-1210 for this molecule: COCCN(C(=O)N(CCCl)N=O)C1O[C@H](CO)[C@@H](O)[C@H]1O (some centres unmarked)
50

Look up responders at 12.5 mg/kg with Leukemia L-1210 for this molecule: COCC(C)N(C(=O)N(CCCl)N=O)C1OC[C@H](O)[C@H](O)[C@H]1O (some centres unmarked)
100

Look up responders at 12.5 mg/kg with Leukemia L-1210 for this molecule: COCCN(C(=O)N(CCCl)N=O)C1OC[C@H](O)[C@H](O)[C@H]1O (some centres unmarked)
66.7

Look up responders at 12.5 mg/kg with Leukemia L-1210 for this molecule: COCC(C)N(C(=O)N(CCCl)N=O)C1O[C@H](CO)[C@H](O)[C@H](O)[C@H]1O (some centres unmarked)
0

Look up responders at 12.5 mg/kg with Leukemia L-1210 for this molecule: COCCCN(C(=O)N(CCCl)N=O)C1OC[C@@H](O)[C@@H](O)[C@@H]1O (some centres unmarked)
25

Look up responders at 12.5 mg/kg with Leukemia L-1210 for this molecule: COCCCN(C(=O)N(CCCl)N=O)C1OC[C@H](O)[C@H](O)[C@H]1O (some centres unmarked)
33.3

Look up responders at 12.5 mg/kg with Leukemia L-1210 for this molecule: COCCCN(C(=O)N(CCCl)N=O)C1O[C@H](CO)[C@@H](O)[C@H](O)[C@H]1O (some centres unmarked)
0

Look up responders at 12.5 mg/kg with Leukemia L-1210 for this molecule: COC(C)CN(C(=O)N(CCCl)N=O)C1OC[C@H](O)[C@H](O)[C@H]1O (some centres unmarked)
75
